target: Nav 1.7 (Homo sapiens (Human), UniProt Q15858); test: Nav 1.7 in vitro PX assay, PatchXpress whole cell voltage clamp; format: cell-based; conditions: HEK 293 cells stably transfected with human Nav1.7; partially inactivated state (20 to 50% inactivation)
Sequence (Q15858 whole entry): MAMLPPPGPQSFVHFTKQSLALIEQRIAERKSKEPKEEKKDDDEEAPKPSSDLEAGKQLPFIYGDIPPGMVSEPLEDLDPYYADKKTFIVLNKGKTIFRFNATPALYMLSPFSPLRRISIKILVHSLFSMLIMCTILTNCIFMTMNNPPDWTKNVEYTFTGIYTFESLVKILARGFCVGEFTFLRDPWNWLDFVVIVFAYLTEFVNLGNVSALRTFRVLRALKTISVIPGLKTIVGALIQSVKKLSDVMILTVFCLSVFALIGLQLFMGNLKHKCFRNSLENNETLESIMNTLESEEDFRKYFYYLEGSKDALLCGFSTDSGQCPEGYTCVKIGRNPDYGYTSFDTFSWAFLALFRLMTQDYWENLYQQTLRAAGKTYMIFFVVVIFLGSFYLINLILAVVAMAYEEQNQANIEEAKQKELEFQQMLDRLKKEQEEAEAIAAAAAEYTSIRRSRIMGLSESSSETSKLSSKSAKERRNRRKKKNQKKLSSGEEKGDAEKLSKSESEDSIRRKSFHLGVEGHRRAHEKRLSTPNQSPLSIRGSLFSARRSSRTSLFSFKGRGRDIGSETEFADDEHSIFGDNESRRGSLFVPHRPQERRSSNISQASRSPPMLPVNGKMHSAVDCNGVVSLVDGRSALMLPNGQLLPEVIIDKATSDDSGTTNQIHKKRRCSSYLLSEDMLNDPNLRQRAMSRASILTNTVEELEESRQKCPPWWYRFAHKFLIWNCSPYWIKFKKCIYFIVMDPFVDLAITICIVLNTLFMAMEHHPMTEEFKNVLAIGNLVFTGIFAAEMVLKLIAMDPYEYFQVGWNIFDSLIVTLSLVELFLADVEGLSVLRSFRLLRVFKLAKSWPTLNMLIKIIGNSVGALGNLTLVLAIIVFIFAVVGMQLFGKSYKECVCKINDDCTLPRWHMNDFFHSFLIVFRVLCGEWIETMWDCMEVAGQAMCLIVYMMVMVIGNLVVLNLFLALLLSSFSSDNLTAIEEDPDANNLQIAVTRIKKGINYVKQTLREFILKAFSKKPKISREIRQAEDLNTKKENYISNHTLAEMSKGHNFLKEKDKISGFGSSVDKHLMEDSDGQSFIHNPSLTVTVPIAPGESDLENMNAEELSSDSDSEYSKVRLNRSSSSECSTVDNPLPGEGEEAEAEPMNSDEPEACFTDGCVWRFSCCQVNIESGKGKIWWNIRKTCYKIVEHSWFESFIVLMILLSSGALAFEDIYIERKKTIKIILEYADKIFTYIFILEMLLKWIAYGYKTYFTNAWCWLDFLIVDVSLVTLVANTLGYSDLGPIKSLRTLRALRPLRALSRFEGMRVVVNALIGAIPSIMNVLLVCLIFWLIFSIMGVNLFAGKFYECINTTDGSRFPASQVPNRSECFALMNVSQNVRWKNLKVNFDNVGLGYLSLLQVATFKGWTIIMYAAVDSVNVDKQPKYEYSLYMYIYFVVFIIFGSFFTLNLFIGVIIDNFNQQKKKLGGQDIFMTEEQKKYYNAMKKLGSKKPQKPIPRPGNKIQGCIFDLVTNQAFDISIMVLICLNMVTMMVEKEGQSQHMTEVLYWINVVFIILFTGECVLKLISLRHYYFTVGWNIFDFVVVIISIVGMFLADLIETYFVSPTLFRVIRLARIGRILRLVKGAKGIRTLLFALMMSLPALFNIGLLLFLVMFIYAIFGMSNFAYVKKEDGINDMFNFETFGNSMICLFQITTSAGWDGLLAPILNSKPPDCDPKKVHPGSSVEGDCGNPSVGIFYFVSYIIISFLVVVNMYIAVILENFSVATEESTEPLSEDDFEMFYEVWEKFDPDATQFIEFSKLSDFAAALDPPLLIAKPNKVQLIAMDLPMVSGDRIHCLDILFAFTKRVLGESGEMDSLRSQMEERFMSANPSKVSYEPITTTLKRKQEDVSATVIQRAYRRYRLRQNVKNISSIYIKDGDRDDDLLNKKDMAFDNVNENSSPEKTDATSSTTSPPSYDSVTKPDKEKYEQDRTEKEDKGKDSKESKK
Values of IC50 strictly less than 1000 nM map to satisfied, and values of at least 1000 nM map to not satisfied.

MOLECULE	GROUP_LABEL
COc1cncc(N2CCOc3cc(S(=O)(=O)Nc4nccs4)ccc32)c1	not satisfied
Cc1cc(C#N)ccc1N1CCOc2cc(S(=O)(=O)Nc3nccs3)ccc21	satisfied
O=S(=O)(Nc1nccs1)c1ccc2c(c1)OCCN2c1ccc(Cl)cc1CC(O)CO (stereo not shown)	satisfied
N#CCOc1ccccc1N1CCOc2cc(S(=O)(=O)Nc3nccs3)ccc21	satisfied
O=S(=O)(Nc1nccs1)c1ccc2c(c1)OCCN2c1ccc(Cl)cc1C1=CCNCC1 [Example 52, 2,2,2-Trifluoroacetate]	satisfied
COc1cnc(N2CCOc3cc(S(=O)(=O)Nc4nccs4)ccc32)c(OC)n1	not satisfied
O=S(=O)(Nc1nccs1)c1ccc2c(c1)OCCN2c1ccc(Cl)cc1OC(F)F [Example 193, 2,2,2-Trifluoroacetate]	satisfied
Cc1cc(C(F)(F)F)ccc1N1CCOc2cc(S(=O)(=O)Nc3nccs3)ccc21	satisfied
O=S(=O)(Nc1ccncn1)c1ccc2c(c1)OCCN2c1ncc(C(F)(F)F)cc1Cl	not satisfied
Cc1ccc(C#N)c(N2CCOc3cc(S(=O)(=O)Nc4nccs4)ccc32)c1	not satisfied
O=S(=O)(Nc1ncccn1)c1ccc2c(c1)OCCN2c1ccc(C(F)(F)F)cc1C1=CCNCC1	satisfied
Cc1cccc(N2CCOc3cc(S(=O)(=O)Nc4nccs4)ccc32)c1 [Example 75, 2,2,2-Trifluoroacetate]	satisfied

###

target: UniProt:Q15858; assay: Nav 1.7 in vitro PX assay, PatchXpress whole cell voltage clamp; assay type: cell-based; settings: HEK 293 cells stably transfected with human Nav1.7; partially inactivated state (20 to 50% inactivation)
Values of IC50 strictly less than 2000 nM map to Fulfilled, and values of at least 2000 nM map to Not fulfilled.

COMPOUND	GROUP_LABEL
Cc1cc(N2CCOc3cc(S(=O)(=O)Nc4nccs4)ccc32)ccc1F [Example 81, 2,2,2-Trifluoroacetate]	Fulfilled
O=S(=O)(Nc1nccs1)c1ccc2c(c1)OCCN2c1ccc(C(F)(F)F)cc1C[C@@H](O)CO (single isomer, unassigned)	Fulfilled
N#Cc1ccc(OC(F)(F)F)cc1N1CCOc2cc(S(=O)(=O)Nc3nccs3)ccc21	Fulfilled
N#Cc1ccc(N2CCOc3cc(S(=O)(=O)Nc4nccs4)ccc32)cc1OC(F)(F)F	Not fulfilled
O=S(=O)(Nc1nccs1)c1ccc2c(c1)OCCN2c1ccccc1C1CCOCC1	Not fulfilled
COc1ccc(C(F)(F)F)cc1N1CCOc2cc(S(=O)(=O)Nc3nccs3)ccc21	Fulfilled
N#CCc1cccc(N2CCOc3cc(S(=O)(=O)Nc4nccs4)ccc32)c1 [Example 174, 2,2,2-Trifluoroacetate]	Fulfilled
O=S(=O)(Nc1nccs1)c1ccc2c(c1)OCCN2c1ccccc1C(O)CO (stereo not shown)	Not fulfilled
N#Cc1cc(C(F)(F)F)ccc1N1CCOc2cc(S(=O)(=O)Nc3nccs3)c(Cl)cc21	Fulfilled
COc1cc(Cl)ccc1N1C(=O)COc2cc(S(=O)(=O)Nc3nccs3)ccc21	Fulfilled
O=S(=O)(Nc1nccs1)c1ccc2c(c1)OCCN2c1ccc(C(F)(F)F)cc1Br	Fulfilled
CCC1CN(c2ccc(C(F)(F)F)cc2C#N)c2ccc(S(=O)(=O)Nc3nccs3)cc2O1 (racemic) [Example 100]	Not fulfilled
O=S(=O)(Nc1nccs1)c1ccc2c(c1)OCCN2c1ccc(C(F)(F)F)cc1CO	Fulfilled
O=S(=O)(Nc1ccncn1)c1ccc2c(c1)OCCN2c1ccc(C(F)(F)F)cc1Br	Fulfilled
Cc1cc(C(F)(F)F)ccc1N1C(=O)COc2cc(S(=O)(=O)Nc3nccs3)ccc21	Fulfilled
N#Cc1ccccc1N1CCOc2cc(S(=O)(=O)Nc3nccs3)ccc21 [Example 58, 2,2,2-Trifluoroacetate]	Not fulfilled
